B1: SNX8 (parent)
chain: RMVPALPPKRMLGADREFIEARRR

Variants of: B1
assay-info: protein stability index of a GFP-peptide fusion (GPS, HEK-293T) (PSI 1-6); higher = more stable;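 further: lentivirally expressed fusions sorted by FACS into six bins by GFP to DsRed ratio, PSI derived from sequencing read proportions per bin multiplied by bin number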
condition-details: c terminus: a fixed tail appended
Reported protein stability index is given for each of the following variants.

INSERT INTO assay_data (mutations, value_reported) VALUES
  ('F18W', 3.75),
  ('V3K', 4.11),
  ('M11V', 3.37),
  ('P8M', 3.06),
  ('D15I', 1.91),
  ('M2T', 4.08);

Prompt line: Return value of protein stability index for input E20W , no commentary.
Response line: 3.26

Prompt line: Identify protein stability index associated with the variant R10E
Response line: 4.84

Prompt line: Assign protein stability index to the following record: R22E
Response line: 4.43

Prompt line: Supply recorded protein stability index for P7F here.
Response line: 3.4

Prompt line: Return protein stability index (reported value) for this variant: R23I
Response line: 2.58
